Taken from patent US10464925B2.

# Experimental Target: FKBP12 (36V) (Homo sapiens, UniProt P62942, F37V)
# Sequence (P62942 whole entry F37V): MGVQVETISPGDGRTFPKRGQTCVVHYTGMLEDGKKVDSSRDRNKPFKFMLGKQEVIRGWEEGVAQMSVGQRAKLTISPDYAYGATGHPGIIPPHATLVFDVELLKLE
# Assay Remarks: FKBP12 (36V) Ligand-Displacement AlphaScreen Assay
# Format: binding
# Particulars: biotin-SLF displacement, read-out: IC50 (nM) FKBP 36V
The entries below come with measured IC50 values attached.
State the answer as a number, implicitly in nM.

Check out these entries, answers already filled in.
Molecule: CCC(C)(C)C(=O)C(=O)N1CCCC[C@H]1C(=O)O[C@H](CCc1ccc(OC)c(OC)c1)c1cccc(OCC(=O)NCCCCNC(=O)COc2cccc3c2C(=O)N(C2CCC(=O)NC2=O)C3=O)c1 (stereo partly shown)
Experimental Target: FKBP12 (36V) (Homo sapiens, UniProt P62942, F37V)
Experimental Readout: IC50
Reading: 369

Molecule: CCC(C)(C)C(=O)C(=O)N1CCCC[C@H]1C(=O)O[C@H](CCc1ccc(OC)c(OC)c1)c1cccc(NC(=O)CCC(=O)NCCCCNC(=O)COc2cccc3c2C(=O)N(C2CCC(=O)NC2=O)C3=O)c1 (stereo partly shown)
Experimental Target: FKBP12 (36V) (Homo sapiens, UniProt P62942, F37V)
Experimental Readout: IC50
Reading: 237

Molecule: COc1ccc(CC[C@@H](OC(=O)[C@@H]2CCCCN2C(=O)Cc2ccccc2)c2cccc(OCC(=O)NCCCCNC(=O)COc3cccc4c3C(=O)N(C3CCC(=O)NC3=O)C4=O)c2)cc1OC (stereo partly shown)
Experimental Target: FKBP12 (36V) (Homo sapiens, UniProt P62942, F37V)
Experimental Readout: IC50
Reading: 2290

Please look at the following molecule next.
What reported IC50 corresponds to CCC(C)(C)C(=O)C(=O)N1CCC[C@H]1C(=O)O[C@H](CCc1ccc(OC)c(OC)c1)c1cccc(OCC(=O)NCCCCNC(=O)COc2cccc3c2C(=O)N(C2CCC(=O)NC2=O)C3=O)c1 (stereo partly shown) on FKBP12 (36V) (Homo sapiens, UniProt P62942, F37V)?
1200
